Origin of values: PubChem BioAssay

EXPERIMENTAL DETAILS: compound effects on lung adenocarcinoma cell viability – A549, calcein-AM fluorescence, 48 h, basal, profiling panel (AID 1162); further: test concentration not given here
CONDITIONS USED: higher = more signal
ENDPOINT NAME: z-score
Lab note: jot down the number only; don't add units.

COMPOUND	READOUT VALUE
CN1C(=O)C2C=CC(C(O)COCc3ccccc3)N(Nc3ccccc3)C2C1=O (centres undefined)	-0.115
COC(=O)[C@]1(Cc2ccccc2N=[N+]=[N-])N=C(c2ccc(OCCCO)cc2)O[C@@H]1c1ccccc1	-3.71
COC(=O)c1ccc(OC)c(/C=C\CC(CCc2ccccc2)OC(=O)c2ccncc2)c1 (centres undefined)	-0.568

Please turn your attention to the following entry.
-- ask Fill in the blank: the reported z-score of COCCOC(=O)N1C(=O)[C@@]2(c3cc(C#CCCO)ccc31)[C@H](c1ccc(OCCO)cc1)N1[C@H](c3ccccc3)[C@H](c3ccccc3)OC(=O)[C@H]1[C@@H]2C(=O)N1CCc2cc(OC)c(OC)cc2C1 is ____.
-- reply -0.874

----------
EXPERIMENTAL DETAILS: viability profiling in MM1S myeloma cells – cell-based, resazurin fluorescence, basal, 24 h, PK04 Diversity Set, profiling panel (AID 1174);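 further: MM1S multiple myeloma cell line; test concentration not given here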
CONDITIONS USED: higher = more signal, called active from +8 up or from −8 down
Would you mind labelling by z-score? At or over -0.09 is TRUE, under is FALSE.

-- ask Could you tell me if the measured z-score of NC(=O)[C@H]1[C@@H]2C(=O)O[C@@H](c3ccccc3)[C@@H](c3ccccc3)N2[C@@H](c2ccc(O)cc2)[C@]12C(=O)Nc1ccc(C#CC3(O)CCCCCC3)cc12 reaches -0.09 or more?
-- reply TRUE

-- ask Could you tell me if the measured z-score of Cc1ccc(S[C@]2(C(=O)O)CC(=O)N(C3CCCCC3)[C@@H]2c2ccc(CO)cc2)cc1 reaches -0.09 or more?
-- reply TRUE

-- ask Could you tell me if the measured z-score of Cc1cc(C)c(C(O)C2C=CC3C(=O)N(c4ccccc4)C(=O)C3N2Nc2ccccc2)c(C)c1 (stereo not given) reaches -0.09 or more?
-- reply FALSE

-- ask Could you tell me if the measured z-score of COc1ccccc1CN1C(=O)c2ccccc2[C@](Cc2ccccc2I)(C(=O)NCCN2CCOCC2)[C@@H]1c1ccc(CO)cc1 reaches -0.09 or more?
-- reply FALSE

-- ask Could you tell me if the measured z-score of CC(C)CNC(=O)[C@@]1(C)c2ccccc2C(=O)N(Cc2ccccc2)[C@H]1c1ccc(CO)cc1 reaches -0.09 or more?
-- reply TRUE

-- ask Could you tell me if the measured z-score of [N-]=[N+]=NCc1ccccc1C[C@]1(C(=O)NCCN2CCOCC2)N=C(c2ccc(OCCCO)cc2)O[C@H]1c1ccccc1 reaches -0.09 or more?
-- reply TRUE

-- ask Could you tell me if the measured z-score of C=CC[C@]1(C(=O)N2CCOCC2)N=C(c2ccc(OCCCO)cc2)O[C@H]1c1ccccc1CN=[N+]=[N-] reaches -0.09 or more?
-- reply FALSE

-- ask Could you tell me if the measured z-score of O=C1O[C@@H](c2ccccc2)[C@@H](c2ccccc2)N2[C@@H](c3ccc(O)cc3)[C@]3(C(=O)Nc4ccc(C#CC5(O)CCCCCC5)cc43)[C@@H](C(=O)N3CCN(c4ncccn4)CC3)[C@H]12 reaches -0.09 or more?
-- reply TRUE

----------
Tested on: Human papillomavirus type 1a E7 protein (residues 1-88)
EXPERIMENTAL DETAILS: HPV1a E7 small-molecule binders, primary screen, biochemical, small-molecule microarray, residues 1-88, 635 nm (AID 1129)
CONDITIONS USED: small-molecule microarray binding, fluorescence 635 nm; higher = more signal
We begin with a simple list: items and their reported composite z-score.
Lab note: jot down the number only; don't add units.

Please review the following examples before continuing.
COMPOUND	READOUT VALUE
C=C(/C(=C/C[C@@H](OC(=O)c1ccncc1)c1ccccc1OCCO)c1cnc2ccccc2c1)C(C)C	0.896
COC(=O)[C@@]1(Cc2ccc(F)cc2)[C@H]2c3cc(C(=O)N4CCCC4)n(Cc4ccccc4)c3C[C@H]2CN1C(=O)c1ccccc1	0.923
COC(=O)C(CC#Cc1ccc2c(c1)[C@]1(C(=O)N2)[C@H](c2ccc(O)cc2)N2[C@H](c3ccccc3)[C@H](c3ccccc3)OC(=O)[C@H]2[C@@H]1C(N)=O)C(=O)OC	-1.91
OCCCC1=CC(c2cccs2)N(Cc2cccc(OC(F)(F)F)c2)CC1 (configuration not stated)	-0.138

-- ask Fill in the blank: the reported composite z-score of CC(C)c1ccc(NN2C(C(O)c3cccs3)C=CC3C(=O)N(c4ccccc4)C(=O)C32)cc1 (configuration not stated) is ____.
-- reply 1.24

-- ask Fill in the blank: the reported composite z-score of CCOC(=O)C1=CC[C@@H](c2ccccc2)N(S(=O)(=O)c2ccc(C)cc2)[C@H]1C=C(C)C is ____.
-- reply 1.22

-- ask Fill in the blank: the reported composite z-score of COCCOC(=O)N1C(=O)[C@@]2(c3cc(C#CCC(C(=O)OC)C(=O)OC)ccc31)[C@H](C(=O)N1CCCCCCC1)[C@H]1C(=O)O[C@H](c3ccccc3)[C@H](c3ccccc3)N1[C@@H]2c1ccc(O)cc1 is ____.
-- reply 1.16

----------
TEST SYSTEM: Epidermal growth factor receptor (Homo sapiens) (UniProt P00533)
Sequence (P00533 whole entry, looked up): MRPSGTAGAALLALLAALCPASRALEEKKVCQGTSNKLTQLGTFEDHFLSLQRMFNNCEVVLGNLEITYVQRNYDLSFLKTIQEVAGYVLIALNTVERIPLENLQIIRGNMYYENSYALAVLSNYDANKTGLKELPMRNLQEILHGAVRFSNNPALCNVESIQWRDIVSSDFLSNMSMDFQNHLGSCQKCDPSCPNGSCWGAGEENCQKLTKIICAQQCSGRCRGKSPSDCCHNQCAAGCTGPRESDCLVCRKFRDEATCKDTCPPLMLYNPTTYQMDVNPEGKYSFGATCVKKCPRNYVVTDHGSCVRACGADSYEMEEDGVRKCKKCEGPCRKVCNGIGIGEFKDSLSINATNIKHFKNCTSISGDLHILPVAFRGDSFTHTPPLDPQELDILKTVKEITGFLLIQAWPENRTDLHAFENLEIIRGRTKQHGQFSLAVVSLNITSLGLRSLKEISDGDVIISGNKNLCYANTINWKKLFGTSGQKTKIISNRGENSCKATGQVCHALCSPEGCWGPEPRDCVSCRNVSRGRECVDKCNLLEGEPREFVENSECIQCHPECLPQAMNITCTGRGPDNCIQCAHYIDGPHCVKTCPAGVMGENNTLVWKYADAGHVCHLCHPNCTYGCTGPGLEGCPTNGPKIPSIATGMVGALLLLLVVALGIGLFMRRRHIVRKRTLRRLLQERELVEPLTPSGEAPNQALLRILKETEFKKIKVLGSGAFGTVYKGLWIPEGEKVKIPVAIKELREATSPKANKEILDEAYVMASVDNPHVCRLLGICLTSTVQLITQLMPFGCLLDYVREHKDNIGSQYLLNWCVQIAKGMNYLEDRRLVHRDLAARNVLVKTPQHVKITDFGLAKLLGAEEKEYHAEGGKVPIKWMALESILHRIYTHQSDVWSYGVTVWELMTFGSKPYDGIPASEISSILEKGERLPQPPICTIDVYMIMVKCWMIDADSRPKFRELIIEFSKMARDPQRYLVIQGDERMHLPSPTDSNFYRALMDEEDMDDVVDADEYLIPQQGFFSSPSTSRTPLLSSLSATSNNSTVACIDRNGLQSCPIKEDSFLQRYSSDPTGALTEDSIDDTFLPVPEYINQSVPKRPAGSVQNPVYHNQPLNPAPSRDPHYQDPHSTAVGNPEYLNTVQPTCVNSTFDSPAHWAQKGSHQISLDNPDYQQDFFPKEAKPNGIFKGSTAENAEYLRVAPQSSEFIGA
EXPERIMENTAL DETAILS: compounds binding epidermal growth factor receptor – biochemical, small-molecule microarray, 635 nm fluorescence, primary screen (AID 1104);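 further: score merges 667 nm emission intensity with spot signal to noise over triplicate slides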
CONDITIONS USED: EGFR binding, higher = more signal
ENDPOINT NAME: composite z-score
Lab note: jot down the number only; don't add units.

Please review the following examples before continuing.
MOLECULE	composite z-score
O=C1NC(=O)C2C1C=CC(C(O)CCc1ccccc1)N2Nc1ccccn1 (configuration not stated)	0.261
COC(=O)[C@@]1(Cc2ccc(OC)cc2)[C@H]2c3cc(C(=O)N4CCCC4)n(Cc4ccc(C)o4)c3C[C@H]2CN1C(=O)c1ccccc1	0.232

-- ask Fill in the blank: the reported composite z-score of CCCC[C@H]1OB(O)C[C@H]2C1=C(COc1ccccc1)Cn1c(=O)n(-c3ccccc3)c(=O)n12 is ____.
-- reply 0.283

-- ask Fill in the blank: the reported composite z-score of C=C(COC)C(=O)CC[C@H](OC(=O)c1ccccc1-c1ccccc1C(=O)O)c1ccc(OCCO)cc1 is ____.
-- reply -0.237

-- ask Fill in the blank: the reported composite z-score of [N-]=[N+]=Nc1ccccc1C[C@]1(C(=O)NCCN2CCOCC2)N=C(c2ccc(OCCCO)cc2)O[C@H]1c1ccccc1N=[N+]=[N-] is ____.
-- reply 0.472

-- ask Fill in the blank: the reported composite z-score of CCOC(=O)C[C@H]1[C@H](OC(=O)c2ccccc2-c2ccccc2)[C@@H](NC(=O)c2ccccc2)c2cc(OCCCO)ccc2N1C(=O)Cc1ccc(OC)cc1 is ____.
-- reply -0.104

-- ask Fill in the blank: the reported composite z-score of COCCOC(=O)N1C(=O)[C@@]2(c3cc(C#CCC(C(=O)OC)C(=O)OC)ccc31)[C@H](c1ccc(OCCO)cc1)N1[C@H](c3ccccc3)[C@H](c3ccccc3)OC(=O)[C@H]1[C@@H]2C(N)=O is ____.
-- reply 0.603

----------
EXPERIMENTAL DETAILS: probe aLefty1 binding on compound microarray – biochemical, small-molecule microarray, 635/667 nm fluorescence, primary screen (AID 1153);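 further: score merges spot fluorescence with signal-to-noise ratio from the scanned slide images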
CONDITIONS USED: higher = more signal
ENDPOINT NAME: composite z-score
Lab note: jot down the number only; don't add units.

Please review the following examples before continuing.
COMPOUND	composite z-score
C[N+](C)(C)CCCCNC(=O)[C@H]1C[C@H]2C(=O)NCC(=O)N2[C@H]1c1ccc(O)cc1	0.242
C=CCC(OC(C)=O)[C@@H]1[C@@H](N(Cc2ccc(-c3ccccc3)cc2)C(=O)c2cccc3ccccc23)c2cc(OCCCO)ccc2N1C(=O)c1ccc2ccccc2n1 (stereo partly specified)	0.123
CN1C(=O)C2C=CC(C(O)C3CCCCC3)N(N(c3ccccc3)c3ccccc3)C2C1=O (stereo unspecified)	0.344
Cc1ccc(-c2cccc(=O)o2)cc1	-0.237

-- ask Fill in the blank: the reported composite z-score of CCCCCCC#C[Si](O[C@H](c1ccccc1)c1cn(Cc2cccc(Cl)c2)nn1)(C(C)C)C(C)C is ____.
-- reply -0.142

-- ask Fill in the blank: the reported composite z-score of CO[C@H]1O[C@H](CO)[C@@H](OC(=O)Nc2ccc(C(F)(F)F)cc2)[C@H](OC(=O)Nc2ccccc2)[C@H]1OC(=O)Nc1ccccc1 is ____.
-- reply 1.14

-- ask Fill in the blank: the reported composite z-score of [N-]=[N+]=Nc1ccccc1[C@H]1OC(c2ccc(OCCCO)cc2)=N[C@@]1(Cc1ccccc1)C(=O)NCc1ccccc1 is ____.
-- reply 0.512

-- ask Fill in the blank: the reported composite z-score of C#CCNS(=O)(=O)N(C)C is ____.
-- reply -0.103

-- ask Fill in the blank: the reported composite z-score of C[C@]12C(=O)N(CCCCCO)[C@@H]3C(=O)N(c4ccc(Cl)cc4)CC=CC31O[C@@H]1/C=C\CCCOC(=O)C12 (stereo partly specified) is ____.
-- reply -0.0054

-- ask Fill in the blank: the reported composite z-score of COc1ccc(C#Cc2ccc3c(c2)[C@]2(C(=O)N3)[C@H](C(=O)O)[C@H]3C(=O)O[C@H](c4ccccc4)[C@H](c4ccccc4)N3[C@@H]2c2ccc(OCCO)cc2)cc1 is ____.
-- reply 0.33
